Each entry below carries its reported log10 of EC50.
assayed-system: 5HT2A receptor (Homo sapiens)
procedure-summary: cell-based
Parameters: expressed in transfected cells; host or cells: HEK293T cells, transient co-transfection
condition: 5HT2A β-Arr EC50 (nM), BRET1 beta-arrestin2 recruitment, HEK293T
measurement-name: log10 of EC50 (log10 of the value in nM)

[[record]]
compound = "CCCN1CCC=C(c2c[nH]c3c(C)cccc23)C1 [Example 155]"
measurement_name = "log10 of EC50"
result_value = 2.73

[[record]]
compound = "FC1(F)C2CNCC21c1n[nH]c2c(Cl)cccc12 (stereo not shown) [Example 199]"
measurement_name = "log10 of EC50"
result_value = 2.98

[[record]]
compound = "Clc1cccc2c(C3CNC3)c[nH]c12 [Example 255, 3-(azetidin-3-yl)-7-chloro-1H-indole]"
measurement_name = "log10 of EC50"
result_value = 2.48

[[record]]
compound = "FC(F)CN1CCC=C(c2n[nH]c3c(Cl)cccc23)C1 [Example 153]"
measurement_name = "log10 of EC50"
result_value = 3.08

[[record]]
compound = "Cc1cccc2c(C3CN(C)C3)c[nH]c12 [Example 261]"
measurement_name = "log10 of EC50"
result_value = 3.22

[[record]]
compound = "Fc1ccc2c(C3=CCCNC3)c[nH]c2n1 [Example 133]"
measurement_name = "log10 of EC50"
result_value = 2.95

[[record]]
compound = "CC(C)N1CC=C(c2n[nH]c3c(Cl)cccc23)C1 [Example 219]"
measurement_name = "log10 of EC50"
result_value = 2.73

[[record]]
compound = "Cc1ccnc2c(C3=CCCN(C)C3)c[nH]c12 [Example 137]"
measurement_name = "log10 of EC50"
result_value = 2.57

[[record]]
compound = "CN1CC=C(c2c[nH]c3c(Cl)cccc23)C1 [Example 210]"
measurement_name = "log10 of EC50"
result_value = 2.08

[[record]]
compound = "CCCN1CC=C(c2n[nH]c3c(Cl)cccc23)C1 [Example 213]"
measurement_name = "log10 of EC50"
result_value = 2.32


----------
assayed-system: 5HT2A receptor (Homo sapiens, UniProt P28223)
Sequence (P28223 whole entry): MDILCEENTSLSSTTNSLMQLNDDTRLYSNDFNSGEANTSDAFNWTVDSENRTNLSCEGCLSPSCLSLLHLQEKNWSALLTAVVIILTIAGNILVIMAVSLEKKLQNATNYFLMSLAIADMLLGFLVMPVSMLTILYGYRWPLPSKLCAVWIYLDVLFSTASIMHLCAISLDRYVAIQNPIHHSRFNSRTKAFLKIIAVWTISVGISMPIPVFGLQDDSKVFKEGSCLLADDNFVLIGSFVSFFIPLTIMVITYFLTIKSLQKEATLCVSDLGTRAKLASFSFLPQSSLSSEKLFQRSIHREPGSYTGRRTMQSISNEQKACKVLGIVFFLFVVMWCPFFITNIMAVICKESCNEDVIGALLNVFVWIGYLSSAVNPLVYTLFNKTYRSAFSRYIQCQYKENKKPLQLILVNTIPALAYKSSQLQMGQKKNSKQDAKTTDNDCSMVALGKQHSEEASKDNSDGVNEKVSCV
procedure-summary: cell-based
Set-up: expressed in transfected cells; host or cells: HEK293T cells, transient co-transfection
condition: 5HT2A β-Arr EC50 (nM), BRET1 beta-arrestin2 recruitment, HEK293T cells
measurement-name: EC50

[[record]]
compound = "CN1CCC=C(c2n[nH]c3ccc(F)cc23)C1"
result_value = "129 nM"

[[record]]
compound = "CN1CCC=C(c2n[nH]c3c(C#N)cccc23)C1"
result_value = "494 nM"

[[record]]
compound = "Fc1cnc2[nH]cc(C3=CCCNC3)c2c1"
result_value = "67.4 nM"

[[record]]
compound = "Cc1ccnc2[nH]cc(C3=CCCNC3)c12"
result_value = "749 nM"

[[record]]
compound = "Cc1cccc2c(C3=CCCN(Cc4ccccc4)C3)c[nH]c12"
result_value = "490 nM"

[[record]]
compound = "Clc1cccc2c(C3=CCCN(Cc4ccccc4)C3)c[nH]c12"
result_value = "756 nM"

[[record]]
compound = "CN1CCC=C(c2c[nH]c3nccc(-c4ccccc4)c23)C1"
result_value = "2140 nM"

[[record]]
compound = "Cc1cccc2[nH]nc(C3=CCCN(C)C3)c12"
result_value = "605 nM"

[[record]]
compound = "Cc1cccc2[nH]nc(C3=CCCNC3)c12"
result_value = "698 nM"

[[record]]
compound = "Clc1cnc2[nH]cc(C3=CCCNC3)c2c1"
result_value = "229 nM"

[[record]]
compound = "CN1CCC=C(c2c[nH]c3nccc(Cl)c23)C1"
result_value = "683 nM"

[[record]]
compound = "N#Cc1cccc2[nH]nc(C3=CCCNC3)c12"
result_value = "562 nM"

[[record]]
compound = "Fc1cccc2[nH]nc(C3=CCCNC3)c12"
result_value = "211 nM"

[[record]]
compound = "Clc1ccc2c(C3=CCCNC3)n[nH]c2c1"
result_value = "430 nM"

[[record]]
compound = "COc1ccc2[nH]nc(C3=CCCN(C)C3)c2c1"
result_value = "681 nM"

[[record]]
compound = "CN1CCC=C(c2c[nH]c3c(Cl)cc(F)cc23)C1"
result_value = "576 nM"

[[record]]
compound = "CCc1[nH]c2ccccc2c1C1=CCCNC1"
result_value = "633 nM"

[[record]]
compound = "Clc1cccc2c(C3CCCNC3)n[nH]c12 (stereo not drawn)"
result_value = "468 nM"

[[record]]
compound = "Cc1cccc2c(C3=CCCNC3)c[nH]c12"
result_value = "1410 nM"

[[record]]
compound = "CN1CCC=C(c2n[nH]c3c(F)cccc23)C1"
result_value = "213 nM"

[[record]]
compound = "C=CCN1CCC=C(c2n[nH]c3c(Cl)cccc23)C1"
result_value = "1010 nM"

